Known Change of a selection of molecules
Test system: Rattus norvegicus
Protocol Notes: Hypolipidemic effects (low-density lipoprotein (LDL) cholesterol) in male rats;Compound was screening orally at 50 mg/Kg
Assay type: functional
Reported Property: Change

In [3]: df
Out[3]:
                                 cpd_smiles             system  observed_measurement
0  COC(=O)C(C)(C)CCCOc1cccc(OCCCC(C)(C)C(=O)OC)c1C(C)=O  Rattus norvegicus                  -40%
1  COC(=O)C(C)(C)CCCOc1cccc(OCCCC(C)(C)C(=O)OC)c1N  Rattus norvegicus                  -42%
2  CC(C)(CCCOc1ccc(OCCCC(C)(C)C(=O)O)c(CO)c1)C(=O)O  Rattus norvegicus                    0%
3    CC(C)(Oc1cccc(OC(C)(C)C(=O)O)c1)C(=O)O  Rattus norvegicus                    0%
4  O=C(O)C1(CCCCOc2ccc(OCCCCC3(C(=O)O)CCC3)cc2)CCC1  Rattus norvegicus                  -32%

====

Listing of entries alongside the reported Change.
Tested on: Rattus norvegicus
Protocol Notes: Hypolipidemic effects (high-density lipoprotein (HDL) cholesterol) in male rats at 12.50 mg/kg
Assay type: functional
Run Parameters: dose 12.5 mg/kg
Reported Property: Change (%)

                                 cpd_smiles  reported_property  observed_measurement
0  CC(C)(CCCOc1ccc(OCCCC(C)(C)C(=O)O)c(Cl)c1)C(=O)O             Change                    94
1           Cc1ccc(C)c(OCCCC(C)(C)C(=O)O)c1             Change                   134
2  CC(C)(CCCCOc1ccc(OCCCCC(C)(C)C(=O)O)cc1)C(=O)O             Change                    81
3  CC(C)(CCCOc1ccc(SCCCC(C)(C)C(=O)O)cc1)C(=O)O             Change                    74
4  COC(=O)C(C)(C)CCCOc1ccc(OCCCC(C)(C)C(=O)OC)c(C)c1             Change                   102
5  CC(C)(CCCOc1ccc(OCCCC(C)(C)C(=O)O)c(-c2ccccc2)c1)C(=O)O             Change                   518

====

Measured Change values are reported for all entries that follow.
Test system: Rattus norvegicus
Protocol Notes: Hypolipidemic effects (low-density lipoprotein (LDL) cholesterol) in male rats;Compound was screening orally at 50 mg/Kg
Format: functional
Reported Property: Change

In [3]: df
Out[3]:
                                   compound  reported_property  observed_measurement
0  COC(=O)C(C)(C)CCCOc1ccc(OCCCC(C)(C)C(=O)OC)c(F)c1             Change                  -65%
1  CC(C)(CCCOc1ccc(OCCCC(C)(C)C(=O)O)c(-c2ccc(Cl)cc2)c1)C(=O)O             Change                  -78%
2  CCCC(O)c1cc(OCCCC(C)(C)C(=O)O)ccc1OCCCC(C)(C)C(=O)O (stereo not given)             Change                  -45%
3  COC(=O)C(C)(C)CCCOc1ccc(OCCCC(C)(C)C(=O)OC)c(C(=O)c2ccccc2)c1             Change                  -42%
4  CC(C)(CCCOc1ccc(C(=O)c2ccccc2)c(OCCCC(C)(C)C(=O)O)c1)C(=O)O             Change                  -10%

====

Tested on: Rattus norvegicus
Protocol Notes: Hypolipidemic effects (low-density lipoprotein (LDL) cholesterol) in male rats;Compound was screening orally at 50 mg/Kg
Type: functional
Entries and their Change values follow.
Reported Property: Change (%)

>>> print(df.to_string())
                                   molecule             system  reported_property  observed_measurement
0  COC(=O)C(C)(C)CCCSc1ccc(Oc2ccc(SCCCC(C)(C)C(=O)OC)cc2)cc1  Rattus norvegicus             Change                   -31
1    CC(C)(CO)CCCCOc1ccc(OCCCCC(C)(C)CO)cc1  Rattus norvegicus             Change                   -54
2  COC(=O)C(C)(C)CCCOc1ccc(C=N/N=C(/N)S)c(OCCCC(C)(C)C(=O)OC)c1  Rattus norvegicus             Change                   -83
3  Cc1ccc(-c2cc(OCCCC(C)(C)C(=O)O)ccc2OCCCC(C)(C)C(=O)O)cc1  Rattus norvegicus             Change                   -42
4  CC(O)c1cc(OCCCC(C)(C)C(=O)O)ccc1OCCCC(C)(C)C(=O)O (stereo not given)  Rattus norvegicus             Change                   -70

====

In this section, each of the compounds is paired with its reported Change.
Tested on: Rattus norvegicus
Protocol Notes: Hypolipidemic effects as the ratio of (HDL/LDL) in male rats at dose 12.5 mg/kg.
Type: functional
Reported Property: Change (%)

>>> df
                                 cpd_smiles  reported_property  observed_measurement
0  CC(C)(CCCOc1ccc(SCCCC(C)(C)C(=O)O)cc1)C(=O)O             Change                   101
1  CC(C)(CCCCOc1ccc(OCCCCC(C)(C)C(=O)O)cc1)C(=O)O             Change                   180
2  CC(C)(CCCOc1ccc(OCCCC(C)(C)C(=O)O)c(Cl)c1)C(=O)O             Change                   242
3  COC(=O)C(C)(C)CCCOc1ccc(OCCCC(C)(C)C(=O)OC)c(C)c1             Change                   142
4  CC(C)(CCCOc1ccc(OCCCC(C)(C)C(=O)O)c(-c2ccccc2)c1)C(=O)O             Change                   945

====

# reported Change; entries follow
System: Rattus norvegicus
Protocol Notes: Hypolipidemic effects(plasma cholesterol) in male rats at 50 mg/kg
Assay type: functional
Reported Property: Change

                                 cpd_smiles             system  reported_property  observed_measurement
0  COC(=O)C(C)(C)CCCOc1ccc(OCCCC(C)(C)C(=O)OC)c(C)c1  Rattus norvegicus             Change                  -37%
1  CC(C)(CCCCOc1ccc(OCCCCC(C)(C)C(=O)O)cc1)C(=O)O  Rattus norvegicus             Change                    0%
2  CC(C)(CCCOc1ccc(OCCCC(C)(C)C(=O)O)c(Cl)c1)C(=O)O  Rattus norvegicus             Change                  -53%
3  CC(C)(CCCOc1ccc(OCCCC(C)(C)C(=O)O)c(-c2ccccc2)c1)C(=O)O  Rattus norvegicus             Change                  -27%

====

Attribute: Change
Species: Rattus norvegicus
Protocol Notes: Hypolipidemic effects(liver weight) in male rats
Assay type: functional
Reported Property: Change (%)

>>> print(df.to_string())
                                 cpd_smiles  reported_property  observed_measurement
0  CC(C)(CCCCOc1ccc(OCCCCC(C)(C)C(=O)O)c(-c2ccccc2)c1)C(=O)O             Change                     8
1  Cc1cc(SCCCC(C)(C)C(=O)O)c(C)cc1OCCCC(C)(C)C(=O)O             Change                    14
2  COC(=O)C(C)(C)CCCOc1cccc(OCCCC(C)(C)C(=O)OC)c1NC(C)=O             Change                     0
3  CC(C)(CCCOc1ccc(OCCCC(C)(C)C(=O)O)c(C(=O)O)c1)C(=O)O             Change                     0
4  COC(=O)C(C)(C)CCCOc1ccc(C(C)(C)c2ccc(OCCCC(C)(C)C(=O)OC)cc2)cc1             Change                     0
5  COC(=O)C(C)(C)CCCOc1ccc(C)c(OCCCC(C)(C)C(=O)OC)c1             Change                     4
6  CC(C)(CCCOc1ccc(OCCCC(C)(C)C(=O)O)c(CO)c1)C(=O)O             Change                     9
7  C/C=C/c1cc(OCCCC(C)(C)C(=O)OC)ccc1OCCCC(C)(C)C(=O)OC             Change                    29
8  CCOC(=O)C(C)(C)CCCOc1ccc(OCCCC(C)(C)C(=O)OCC)c(-c2ccccc2)c1             Change                    20
9  COC(=O)C(C)(C)CCCOc1ccc(Cl)c(OCCCC(C)(C)C(=O)OC)c1             Change                     8
